System: monoamine transmitters (NA, DA and 5-HT)
Assay: In vivo brain microdialysis of monoamines in striatum and frontal cortex
Parameters: species or system rat
Conditions: Rattus norvegicus, sc, 50 μmol/kg s.c., frontal cortex dialysate, rats; read-out: NA FC ± SEM, maximum effect compared to baseline
Where a name gives a salt, the structure may show the parent alone.
Assign t to entries whose response vs control in vivo at 50 µmol/kg meets or exceeds 400%; assign f to the rest.

1. Fc1cc(F)c(F)c(C(F)C2CNC2)c1.O=C(O)C(=O)O (centres unmarked) [Example 9, Oxalate Salt] | t
2. CCN1CC(C(F)c2cc(F)cc(F)c2)C1 (centres unmarked) [Example 19, Oxalate Salt] | f
3. Fc1cccc(F)c1C(F)C1CNC1 (centres unmarked) [Example 7, Oxalate Salt] | t

-- ask Does the reported response vs control in vivo at 50 µmol/kg for CCCN1CC(C(F)c2cc(F)cc(F)c2)C1 (centres unmarked) [Example 20, Oxalate Salt] fall at or above the 400% mark?
-- reply f

* * *

parameter: melting point (°C)
Value expressed in °C; do not type the unit.

Worked set:
1) CCCN1CC(C(F)c2cc(F)cc(F)c2F)C1.O=C(O)C(=O)O (stereo not drawn) (hydrate or solvate) | 159
2) CCN1CC(C(F)c2cc(F)c(F)c(F)c2)C1.O=C(O)C(=O)O (stereo not drawn) (hydrate or solvate) | 129.8
3) Fc1cc(F)c(F)c(C(F)C2CNC2)c1F.O=C(O)C(=O)O (stereo not drawn) (hydrate or solvate) | 181.6

-- ask What does the data say about its melting point? Entry: CCCN1CC(C(F)c2cccc(F)c2F)C1.O=C(O)C(=O)O (stereo not drawn) (hydrate or solvate)
-- reply 137.4

-- ask What does the data say about its melting point? Entry: Fc1cc(F)c(C(F)C2CNC2)c(F)c1.O=C(O)C(=O)O (stereo not drawn) (hydrate or solvate)
-- reply 149.6

-- ask What does the data say about its melting point? Entry: CCN1CC(C(F)c2c(F)c(F)cc(F)c2F)C1.O=C(O)C(=O)O (stereo not drawn) (hydrate or solvate)
-- reply 145.9

* * *

Test system: monoamine transmitters (NA, DA and 5-HT)
Assay: In vivo brain microdialysis of monoamines in striatum and frontal cortex
Set-up: species or system rat
Conditions: Rattus norvegicus, sc, 50 μmol/kg s.c., frontal cortex dialysate, rats; read-out: NA FC ± SEM, maximum effect compared to baseline
Where a name gives a salt, the structure may show the parent alone.
parameter: response vs control in vivo at 50 µmol/kg (%)
Value expressed in %; do not type the unit.

Worked set:
1. CCN1CC(C(F)c2cccc(F)c2F)C1 (stereo not shown) | 272
2. Fc1cc(C(F)C2CNC2)cc(F)c1F (stereo not shown) [Example 12, Oxalate Salt] | 214
3. Fc1ccc(C(F)C2CNC2)c(F)c1 (stereo not shown) [Example 8, Oxalate Salt] | 400

Now examine the next entry.
-- ask What does the data say about its response vs control in vivo at 50 µmol/kg? Entry: Fc1ccc(C(F)C2CNC2)c(F)c1F (stereo not shown) [Example 11, Oxalate Salt]
-- reply 342
